experimental target: MC4-R (Homo sapiens)
Construct: expressed in transfected cells; host or cells: HEK-293
Sequence (P32245 whole entry): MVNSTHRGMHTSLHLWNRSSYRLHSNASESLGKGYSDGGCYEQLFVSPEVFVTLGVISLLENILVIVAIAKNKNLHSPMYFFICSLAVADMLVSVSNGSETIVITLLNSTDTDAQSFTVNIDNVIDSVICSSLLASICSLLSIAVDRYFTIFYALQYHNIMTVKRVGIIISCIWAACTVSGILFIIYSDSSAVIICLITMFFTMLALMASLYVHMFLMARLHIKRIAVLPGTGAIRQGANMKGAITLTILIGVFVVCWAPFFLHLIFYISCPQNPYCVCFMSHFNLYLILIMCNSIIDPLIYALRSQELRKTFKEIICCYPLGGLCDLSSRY
assay remarks: Competitive binding assay: inhibition of 125I-NDP-α-MSH binding to HEK-293 membranes with cloned human receptor subtype 4
protocol conditions: Table 6; 1 μM; mean of triplicate
Non-standard residues stand in square brackets, D forms with d.
Exercise: state measured % Inhibition of Binding hMC4-R for each of the substances provided.
Numbers only, in %.

Would you mind giving % Inhibition of Binding hMC4-R for every substance in the list below?
1. Idc-D-Phe-Arg-Cys-Trp-NH2
2. Ac-Ala-Ala-His-D-Phe-Arg-Cys-Trp-NH2 ({Ac-Ala-Ala-H2N}-[dF]RCW-NH2; not fully specified; printed as Ac-Ala-Ala-His-D-Phe-Arg-Cys-Trp-NH2)

Response:
[4, 4]
